- PROTOCOL_SUMMARY: Partition coefficient in octanol/water at pH 7.5 buffer.
- Type: physicochemical
READOUT_LABEL: logD

{"MOLECULE": "CC1CN(c2cc3c(cc2F)c(=O)c(C(=O)O)cn3-c2ccc(F)cc2F)CCN1 (stereo unspecified)", "READOUT_LABEL": "logD", "RECORDED_NUMBER": -0.29}
